Values were extracted from patent US20260232830A1.

# tgt: T1, human EGFR-His antigen (human, UniProt P00533 25-645)
# T1 construct: also called hEGFR-His
# method_summary: SPR Biacore 8K, antibody on Protein A chip, 1:1 fit
endpoint: pKd
Give bare numbers, as −log10 of the molar value.

binder="ZalH2 (antibody, human IgG1, kappa, V domains shown, anti-EGFR zalutumumab variant, human IgG1) VH: QVQLVESGGGVVQPGRSLRLSCAASGFTFSTYGMHWVRQAPGKGLEWVAVIWEDGSYKYYGDSVKGRFTISRDNSKNTLYLQMNSLRAEDTAVYYCARDGITMVRGVMKDYFDYWGQGTLVTVSS VL: DIQLTQSPSSLSASVGDRVTITCRASQDISSALVWYQQKPGKAPKLLIYDASSLESGVPSRFSGSESGTDFTLTISSLQPEDFATYYCQQFNSYPLTFGGGTKVEIKR" observed_value=7.03
binder="ZalH12 (antibody, human IgG1, kappa, V domains shown, anti-EGFR zalutumumab variant, human IgG1) VH: QVQLVESGGGVVQPGRSLRLSCAASGFTFSTYGMHWVRQAPGKGLEWVAVIWDDGSNKYYGDSVKGRFTISRDNSKNTLYLQMNSLRAEDTAVYYCARDGITMVRGVMKDYFDYWGQGTLVTVSS VL: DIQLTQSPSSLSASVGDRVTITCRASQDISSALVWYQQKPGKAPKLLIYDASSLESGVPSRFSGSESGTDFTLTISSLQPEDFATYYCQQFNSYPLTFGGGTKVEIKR" observed_value=6.92

Endpoint output: pKd of ZalH4 (antibody, human IgG1, kappa, V domains shown, anti-EGFR zalutumumab variant, human IgG1; also called EGFR monoclonal antibody ZalH4) VH: QVQLVESGGGVVQPGRSLRLSCAASGFTFSTYGMHWVRQAPGKGLEWVAVIWDDGSYKYYGDSVKGRFTISRDNSKNTLYLQMNSLRAEDTAVYYCARDGVTMVRGVMKDYFDYWGQGTLVTVSS VL: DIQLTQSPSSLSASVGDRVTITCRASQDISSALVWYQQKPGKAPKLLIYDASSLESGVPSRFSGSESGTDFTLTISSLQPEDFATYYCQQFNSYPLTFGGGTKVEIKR . Value?
7.35
